assay: Antiproliferative activity against human NCI-ADR-RES cells assessed as concentration required for total cell growth inhibition after 48 hrs by SRB assay; format: functional
Reported metric: TGI (µM)
Dear colleague, please return just the value in µM, with no unit written.

Some solved entries appear below for comparison.
COc1cc(/C=C/C2(C)C=CC(=O)O2)cc(OC)c1O (centres undefined) = 51.6
COc1cccc(/C=C/C2(C)C=CC(=O)O2)c1 (centres undefined) = 48.6
C[C@]1(/C=C/c2ccccc2)CC=CC(=O)O1 = 107
COc1cc(/C=C/C2(C)C=CC(=O)O2)cc(OC)c1OC (centres undefined) = 123
CC1(/C=C/c2ccccc2O)C=CC(=O)O1 (centres undefined) = 78

INPUT: Provide one value: measured TGI of COc1ccc(/C=C/C2(C)C=CC(=O)O2)c(OC)c1OC (centres undefined)
OUTPUT: 349

INPUT: Provide one value: measured TGI of COc1cc(OC)c(/C=C/C2(C)C=CC(=O)O2)c(OC)c1 (centres undefined)
OUTPUT: 229

INPUT: Provide one value: measured TGI of CC1(/C=C/c2ccccc2C(F)(F)F)C=CC(=O)O1 (centres undefined)
OUTPUT: 12.2
